activation listing for selected molecules.
test: primary screen for activators of insulin secretion dependent on glucose, INS-1E cells, GLuc reporter luminescence (AID 743287);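 note: 0% = median of neutral control wells and 100% = median of IBMX positive control wells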
applied-conditions: INS-1E GLuc reporter insulin secretion, 2-3 h, at 16.6 µM, hits give high values
Out of some 370,000 compounds screened, about 2,300 (0.62%) were called active. Only a selection was taken, and actives are over-represented in it overall.
State just the number; it will be interpreted in %.

[
  {
    "molecule": "C/C=C/c1ccc([C@@H]2[C@@H](CN(C)C(C)=O)N(C(=O)C3CC3)[C@H]2CO)cc1",
    "unit-text": "%",
    "activation": -3.3
  },
  {
    "molecule": "O=C(C[C@@H]1CC[C@@H](NC(=O)C2CC2)[C@@H](CO)O1)NCc1ccccc1Cl",
    "unit-text": "%",
    "activation": -6.27
  },
  {
    "molecule": "O=C(C1CCOCC1)N1CC(=O)N2[C@H](CO)[C@H](c3ccc(C#CC4CCCCC4)cc3)[C@H]2C1",
    "unit-text": "%",
    "activation": 6.98
  },
  {
    "molecule": "CCC(=O)N1C[C@H](C)[C@H](OC)CN(C)C(=O)c2ccc(NC(=O)Nc3ccc(Cl)cc3)cc2OC[C@H]1C",
    "unit-text": "%",
    "activation": -31.9
  },
  {
    "molecule": "O=C(CN1CCCCCC1)Nc1ccc(Br)cc1[N+](=O)[O-]",
    "unit-text": "%",
    "activation": 7
  }
]

Fill in: activation of O=C(Cc1cccnc1)N1CC(=O)N2[C@@H](CO)[C@@H](c3ccc(C#CC4CCCCC4)cc3)[C@@H]2C1 is ___
-3.29

// returns reported activation for input CO[C@H]1CN(C)C(=O)c2cc(NS(C)(=O)=O)ccc2OC[C@@H](C)N(C(=O)NC(C)C)C[C@@H]1C
8.6

I am curious: what activation value has been reported for CNC[C@@H]1Oc2cc(-c3ccccc3OC)ccc2S(=O)(=O)N([C@H](C)CO)C[C@H]1C ?
5.62

Requested field: activation. Item: O=C(CN(CC1CCCO1)C(=O)CNS(=O)(=O)c1ccc(F)cc1)NCc1ccco1 (centres undefined)
16.2

Record request: activation value, item CNC(=S)N/N=C/c1ccc(OCc2ccccc2)c(Br)c1
107

Look up activation for this molecule: COc1ccccc1CNC(=O)CCCn1c(=O)c2ccccc2n(CC(=O)NC2CCCC2)c1=O
-9.86

Look up activation: O=C(CN1CCC(NC(=O)C2CC2)CC1)Nc1ccccc1[N+](=O)[O-]
96.7

I would be grateful if you could share the reported activation for Cc1ccc(S(=O)(=O)N(C)C[C@@H]2Oc3ccc(NC(=O)C4CCCCC4)cc3CC(=O)N([C@@H](C)CO)C[C@H]2C)cc1 .
-11.4

----------
test: primary screen for activators of insulin secretion dependent on glucose, INS-1E cells, GLuc reporter luminescence (AID 743287);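 note: 0% = median of neutral control wells and 100% = median of IBMX positive control wells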
applied-conditions: INS-1E GLuc reporter insulin secretion, 2-3 h, at 16.6 µM, hits give high values
Hit rate of the full screen: of about 370,000 compounds, about 2,300 (0.62%) were called active. Shown is part of a subset that was picked to be rich in actives.
Reported activation is given for each of the following compounds.
Reply numerically in %, unit not repeated.

Consider the reported activation for these compounds:
[
  {
    "compound": "C[C@@H]1CN([C@H](C)CO)S(=O)(=O)c2ccc(C3=CCCC3)cc2O[C@H]1CN(C)C(=O)CC1CC1",
    "activation [%]": -5.57
  },
  {
    "compound": "C=CCSc1nc(N)cc(=O)[nH]1",
    "activation [%]": 18
  },
  {
    "compound": "N#Cc1ccc(OCCCN2CCC(C(O)(c3ccccc3)c3ccccc3)CC2)c(F)c1",
    "activation [%]": -32.8
  },
  {
    "compound": "COc1cccc(CNC(=O)[C@@H]2[C@@H](CO)[C@@H]3Cn4c(ccc(-c5cccnc5)c4=O)[C@@H]3N2C)c1",
    "activation [%]": -0.31
  },
  {
    "compound": "O=c1[nH]c2ccccc2n1C1CCN(CCOc2ccccc2)CC1",
    "activation [%]": -4.23
  }
]

Would you mind telling me what activation value was observed for CC(=O)Nc1ccc(NC(=O)C2CCCN2S(=O)(=O)c2cccc(C(F)(F)F)c2)cc1 (configuration not stated) ?
-4.8

So what does the record say about activation for OC(c1ccc(Cl)cc1)C(CN1CCOCC1)c1ccccc1 (configuration not stated) ?
225

activation lookup needed for C[C@@H]1CN([C@@H](C)CO)C(=O)c2cccc(N(C)C)c2O[C@H]1CN(C)S(=O)(=O)c1cccs1 , thanks.
4.92

Which activation reading was recorded for the compound CCOc1cc(C(=O)OCC(=O)Nc2cccc(C)c2)ccc1OCC(=O)N1CCOCC1 ?
7.48

Given the entry CC(=O)Nc1cc(-c2ccccc2F)cn2c(-c3cccc(C(F)(F)F)c3)cnc12 , report its measured activation.
2.99

Which value of activation has been reported for COc1ccc2c3c([nH]c2c1)[C@H](CO)N(C(=O)Nc1ccc(F)cc1)CC31CCN(C(=O)Nc2c(C)noc2C)CC1 in the records?
-8.35

Looking for the measured activation of CC(=O)N(C)C[C@@H]1Oc2ccc(N)cc2CC(=O)N(C)C[C@H]1C , can you help?
-4.42

What value of activation has been reported for the following compound? CCOC(=O)C1(Cc2cccc(OC)c2)CCN(C(C)COC)CC1 (configuration not stated)
5.01

Form field: reported activation of CN(C)CCNC(=O)c1cccc(-c2cnc3c(NC=O)cc(-c4cccc(C(F)(F)F)c4)cn23)c1
52.7

Look up activation for this compound: C[C@@H]1CN([C@@H](C)CO)C(=O)c2cccc(NC(=O)C3CC3)c2O[C@@H]1CN(C)C
21.1

What value of activation has been reported for the following compound? CCCCc1nc(NCc2ccccc2)c(C#N)c2c1CCCC2
-17.4

Value lookup for activation; key = COc1ccc(S(=O)(=O)N(C)C[C@H]2Oc3ccc(NS(=O)(=O)c4ccc(F)cc4)cc3C(=O)N([C@H](C)CO)C[C@H]2C)cc1
-11.6

# input compound: CCCNC(=O)N1C[C@@H](O)COC[C@H]2O[C@H](CC(=O)N3CCC(Cc4ccccc4)CC3)CC[C@@H]21 ; wanted: its activation
2.87

State the recorded activation for this entry: COc1ccc(C(=O)OCC(=O)Nc2cc(C)on2)cc1F
12.4

I'd like to know its activation. The compound in question is COc1ccccc1S(=O)(=O)N[C@@H]1C=C[C@H](CC(=O)NCc2cccc(F)c2)O[C@H]1CO
10.3

What does the record list as activation for COc1ccc2c3c([nH]c2c1)[C@@H](CO)N(C(=O)NC(C)C)CC31CN(C(=O)C2CCCC2)C1 ?
3.69

Which activation value is on record for Cc1noc(C)c1NC(=O)Nc1ccc2c(c1)C(=O)N([C@@H](C)CO)C[C@H](C)[C@@H](CN(C)C)O2 ?
11.6

Entry C=CCSc1nc2c(c(=O)[nH]1)C(C(C)C)C(C#N)=C(N)O2 (configuration not stated) : reported activation = ?
71.8
